We begin with a simple list: items and their reported CRF2R EC50.
- SUBJECT_OF_TEST: T1, corticotropin releasing factor 2 receptor
- T1 sequence (Q13324 whole entry, species assumed, looked up): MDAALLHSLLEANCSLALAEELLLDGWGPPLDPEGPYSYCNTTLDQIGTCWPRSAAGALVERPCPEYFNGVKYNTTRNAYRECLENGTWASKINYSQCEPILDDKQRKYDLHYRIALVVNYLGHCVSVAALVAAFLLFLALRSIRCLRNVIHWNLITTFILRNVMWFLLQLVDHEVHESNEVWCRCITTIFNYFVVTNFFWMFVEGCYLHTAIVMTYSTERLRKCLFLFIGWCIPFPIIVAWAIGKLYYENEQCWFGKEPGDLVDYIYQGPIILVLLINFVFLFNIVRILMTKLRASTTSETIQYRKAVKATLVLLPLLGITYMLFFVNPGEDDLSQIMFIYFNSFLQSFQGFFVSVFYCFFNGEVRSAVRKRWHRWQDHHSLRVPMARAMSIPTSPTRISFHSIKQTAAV
- ASSAY_NOTES: cell-based or functional assay
Ends that are not written are not given here.
Please respond with the number in nM and leave the unit unwritten.

A selection of reference data follows.
>>> df
                                     binder  endpoint_result
0  ZGPPISIDLPIELLRKMIEIEKQEKEKQQAANNRLLLDTI (C-terminal amide) [SEQ ID NO 76]             91.5
1  IVLSLDVPIGLLQILLEQTKARAAREQATTNARILARV-NH2 [SEQ ID NO 129]             3.83
2  ZGPPISIDVPTYLLRKMIEIEKQEKEKQQATTNARILARV (C-terminal amide) [SEQ ID NO 170]               75

Memo: ZGPPISIDLPTYLLRKMIEIEKQEKEKQQAANNRLLLDTI (C-terminal amide) [SEQ ID NO 70] , reported CRF2R EC50: 18.2

Memo: ZGPPISIDLPFQLLRKMIEIEKQEKEKQQATTNRLLLDTV (C-terminal amide) [SEQ ID NO 16] , reported CRF2R EC50: 7.88

Reference source: patent US20030148958A1
